Each recorded value in this set is attributed to patent US9394282B2.

Target: JAK2 (Homo sapiens (Human), UniProt O60674)
Sequence (O60674 849-1124): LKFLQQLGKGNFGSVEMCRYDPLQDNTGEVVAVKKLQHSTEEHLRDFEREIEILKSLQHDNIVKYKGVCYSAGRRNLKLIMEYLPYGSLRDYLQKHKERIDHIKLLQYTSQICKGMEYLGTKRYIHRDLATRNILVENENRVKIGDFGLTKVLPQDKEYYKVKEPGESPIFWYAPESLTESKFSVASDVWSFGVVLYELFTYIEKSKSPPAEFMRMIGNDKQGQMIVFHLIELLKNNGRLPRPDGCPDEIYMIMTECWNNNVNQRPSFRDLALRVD
Experiment: Jak biochemical HTRF assay, JAK2
Conditions: recombinant purified GST-tagged catalytic domain; HTRF format; [ATP] […]
Note that class boundaries on IC50 are label 0: < 20 nM; label 1: ≥ 20 nM and < 300 nM; label 2: ≥ 300 nM

1) C[C@]1(C#N)CS(=O)(=O)CC1n1cc(C(N)=O)c(Nc2ccc(F)cc2)n1 (stereo partly drawn) [Example 13-5] ... label 0
2) C[C@@H]1C[C@H](C#N)[C@@H](n2cc(C(N)=O)c(Nc3ccnc(F)c3)n2)CO1 (mixture of isomers) [Example 10-1] ... label 1
3) N#C[C@@H]1CN(CC2CCC2)CC[C@H]1n1cc(C(N)=O)c(Nc2ccc(F)cc2)n1 [Example 6-40] ... label 1
4) C[C@@]1(C#N)CS(=O)(=O)C[C@@H]1n1cc(C(N)=O)c(Nc2ccc(F)cc2)n1 (single isomer, unassigned) [Example 14-1] ... label 0
5) CC(C)(C)OC(=O)N1CC[C@H](n2cc(C(N)=O)c(Nc3ccccc3)n2)[C@H](C#N)C1 (mixture of isomers) [Example 1-1] ... label 2
6) CC(C)(COC(=O)N1CC[C@@H](C#N)[C@H](n2cc(C(N)=O)c(Nc3ccc(F)cc3)n2)C1)n1cccn1 (mixture of isomers) [Example 5-92] ... label 2
7) Cn1nccc1CN1CC[C@@H](n2cc(C(N)=O)c(Nc3ccc(F)cc3)n2)[C@H](C#N)C1 (mixture of isomers) [Example 6-32] ... label 1
8) CC(C)(C)OC(=O)N1CC[C@@H](n2cc(C(N)=O)c(Nc3ccccc3)n2)[C@H](C#N)C1 (mixture of isomers) [Example 1-2] ... label 2

Ask: Please report the category associated with N#C[C@@H]1CS(=O)(=O)C[C@H]1n1cc(C(N)=O)c(Nc2ccc(F)cc2)n1 (single isomer, unassigned) [Example 12-1] , nothing else.
Reply: label 2

Ask: Sort C[C@H]1OCC[C@@H](C#N)[C@@H]1n1cc(C(N)=O)c(Nc2ccnc(F)c2)n1 (mixture of isomers) [Example 10-2] into one of the categories.
Reply: label 1

Ask: Consider N#C[C@@H]1CN(C(=O)OC2CCCCC2)CC[C@H]1n1cc(C(N)=O)c(Nc2ccc(F)cc2)n1 (mixture of isomers) [Example 5-17] . To which IC50 class does it belong?
Reply: label 2

Ask: Bin this entry: N#Cc1ccc(Nc2nn([C@H]3COCC[C@@H]3C#N)cc2C(N)=O)cc1 (single isomer, unassigned) [Example 9-35]
Reply: label 0

Ask: Given N#C[C@@H]1CS(=O)(=O)C[C@H]1n1cc(C(N)=O)c(Nc2ccc(F)cc2)n1 (single isomer, unassigned) [Example 12-2] , name the class its IC50 places it in.
Reply: label 0

Ask: GET /class?item= Cc1ncoc1CN1CC[C@@H](C#N)[C@H](n2cc(C(N)=O)c(Nc3ccc(F)cc3)n2)C1 [Example 7-2]
Reply: label 0
